biological target: d-enCas12a (Acidaminococcus sp., UniProt U2UMQ6 1-1307, E174R;S542R;K548R;D908A;E993A;D1235A); assay: Spec-seq (native PAGE EMSA with sequencing of bound and unbound); 25 mM Tris-HCl pH 7.4, 150 mM KCl, 5 mM MgCl2, 10% glycerol, 1 mM DTT, 40 ng/uL salmon sperm DNA; 400 nM Cas12a, 480 nM crRNA, 50 nM library, 37 C 1 h; native PAGE at room temperature; high values mean tight binding; conditions: protein: recombinant;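 further: relative affinity from the bound to unbound sequence frequency ratio in Spec-seq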
ASSAY_READOUT: binding signal

[
  {
    "BINDER": "GTTG (dsDNA) DNA 1: GCTATCTAGTGCTCAGTACGCACTGGTTGAGGAAACTTCTGGCAGGACCAGGTCATGAGATCGGAAGAGCACACGTCTGAACTCCAGTCA DNA 2: TGACTGGAGTTCAGACGTGTGCTCTTCCGATCTCATGACCTGGTCCTGCCAGAAGTTTCCTCAACCAGTGCGTACTGAGCACTAGATAGC RNA: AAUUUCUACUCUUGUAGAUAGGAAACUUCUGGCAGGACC",
    "binding signal": "-1.41 lnKA"
  },
  {
    "BINDER": "TCCA (dsDNA) DNA 1: GCTATCTAGTGCTCAGTACGCACTGTCCAAGGAAACTTCTGGCAGGACCAGGTCATGAGATCGGAAGAGCACACGTCTGAACTCCAGTCA DNA 2: TGACTGGAGTTCAGACGTGTGCTCTTCCGATCTCATGACCTGGTCCTGCCAGAAGTTTCCTTGGACAGTGCGTACTGAGCACTAGATAGC RNA: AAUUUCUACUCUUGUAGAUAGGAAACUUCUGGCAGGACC",
    "binding signal": "-2.15 lnKA"
  },
  {
    "BINDER": "ATGA (dsDNA) DNA 1: GCTATCTAGTGCTCAGTACGCACTGATGAAGGAAACTTCTGGCAGGACCAGGTCATGAGATCGGAAGAGCACACGTCTGAACTCCAGTCA DNA 2: TGACTGGAGTTCAGACGTGTGCTCTTCCGATCTCATGACCTGGTCCTGCCAGAAGTTTCCTTCATCAGTGCGTACTGAGCACTAGATAGC RNA: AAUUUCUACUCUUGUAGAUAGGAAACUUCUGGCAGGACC",
    "binding signal": "-5.35 lnKA"
  },
  {
    "BINDER": "TCTC (dsDNA) DNA 1: GCTATCTAGTGCTCAGTACGCACTGTCTCAGGAAACTTCTGGCAGGACCAGGTCATGAGATCGGAAGAGCACACGTCTGAACTCCAGTCA DNA 2: TGACTGGAGTTCAGACGTGTGCTCTTCCGATCTCATGACCTGGTCCTGCCAGAAGTTTCCTGAGACAGTGCGTACTGAGCACTAGATAGC RNA: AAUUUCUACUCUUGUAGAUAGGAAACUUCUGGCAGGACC",
    "binding signal": "-3.15 lnKA"
  },
  {
    "BINDER": "ATAA (dsDNA) DNA 1: GCTATCTAGTGCTCAGTACGCACTGATAAAGGAAACTTCTGGCAGGACCAGGTCATGAGATCGGAAGAGCACACGTCTGAACTCCAGTCA DNA 2: TGACTGGAGTTCAGACGTGTGCTCTTCCGATCTCATGACCTGGTCCTGCCAGAAGTTTCCTTTATCAGTGCGTACTGAGCACTAGATAGC RNA: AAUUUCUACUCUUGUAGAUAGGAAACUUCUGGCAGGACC",
    "binding signal": "-5.28 lnKA"
  },
  {
    "BINDER": "CTAT (dsDNA) DNA 1: GCTATCTAGTGCTCAGTACGCACTGCTATAGGAAACTTCTGGCAGGACCAGGTCATGAGATCGGAAGAGCACACGTCTGAACTCCAGTCA DNA 2: TGACTGGAGTTCAGACGTGTGCTCTTCCGATCTCATGACCTGGTCCTGCCAGAAGTTTCCTATAGCAGTGCGTACTGAGCACTAGATAGC RNA: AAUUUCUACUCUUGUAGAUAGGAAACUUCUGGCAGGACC",
    "binding signal": "-5.65 lnKA"
  },
  {
    "BINDER": "GGAC (dsDNA) DNA 1: GCTATCTAGTGCTCAGTACGCACTGGGACAGGAAACTTCTGGCAGGACCAGGTCATGAGATCGGAAGAGCACACGTCTGAACTCCAGTCA DNA 2: TGACTGGAGTTCAGACGTGTGCTCTTCCGATCTCATGACCTGGTCCTGCCAGAAGTTTCCTGTCCCAGTGCGTACTGAGCACTAGATAGC RNA: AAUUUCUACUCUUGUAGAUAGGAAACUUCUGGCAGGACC",
    "binding signal": "-5.75 lnKA"
  },
  {
    "BINDER": "ACCG (dsDNA) DNA 1: GCTATCTAGTGCTCAGTACGCACTGACCGAGGAAACTTCTGGCAGGACCAGGTCATGAGATCGGAAGAGCACACGTCTGAACTCCAGTCA DNA 2: TGACTGGAGTTCAGACGTGTGCTCTTCCGATCTCATGACCTGGTCCTGCCAGAAGTTTCCTCGGTCAGTGCGTACTGAGCACTAGATAGC RNA: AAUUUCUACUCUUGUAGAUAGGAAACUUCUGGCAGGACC",
    "binding signal": "-4.92 lnKA"
  },
  {
    "BINDER": "ATGT (dsDNA) DNA 1: GCTATCTAGTGCTCAGTACGCACTGATGTAGGAAACTTCTGGCAGGACCAGGTCATGAGATCGGAAGAGCACACGTCTGAACTCCAGTCA DNA 2: TGACTGGAGTTCAGACGTGTGCTCTTCCGATCTCATGACCTGGTCCTGCCAGAAGTTTCCTACATCAGTGCGTACTGAGCACTAGATAGC RNA: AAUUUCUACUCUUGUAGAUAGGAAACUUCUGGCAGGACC",
    "binding signal": "-5.72 lnKA"
  }
]

// next entry
Ask: Quick one: binding signal of CTCT (dsDNA) DNA 1: GCTATCTAGTGCTCAGTACGCACTGCTCTAGGAAACTTCTGGCAGGACCAGGTCATGAGATCGGAAGAGCACACGTCTGAACTCCAGTCA DNA 2: TGACTGGAGTTCAGACGTGTGCTCTTCCGATCTCATGACCTGGTCCTGCCAGAAGTTTCCTAGAGCAGTGCGTACTGAGCACTAGATAGC RNA: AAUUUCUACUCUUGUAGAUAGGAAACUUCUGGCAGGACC ?
Result: -3.44 lnKA
